Target: T1, human PD-L1 (full-length, expressed on CHO cells) (human, UniProt Q9NZQ7 19-290)
T1 construct: also called huPD-L1; CD274
T1 sequence (Q9NZQ7 19-290): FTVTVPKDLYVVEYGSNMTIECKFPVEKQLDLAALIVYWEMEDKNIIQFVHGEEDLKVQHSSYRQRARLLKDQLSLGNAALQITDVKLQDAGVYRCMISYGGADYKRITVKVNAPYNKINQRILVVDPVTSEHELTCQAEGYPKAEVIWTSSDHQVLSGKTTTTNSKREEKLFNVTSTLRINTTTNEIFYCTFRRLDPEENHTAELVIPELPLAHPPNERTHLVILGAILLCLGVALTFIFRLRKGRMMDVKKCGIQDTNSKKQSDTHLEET
Assay: flow cytometry, CHO cells expressing huPD-L1, PE anti-human Fc
endpoint.name: MFI at 33.3 nM (MFI)

{"binder": "variant CD80 IgV-Fc Q33L/E35D/M47V/T79A (Fc fusion, not shown: a dimerising Fc or GST) VIHVTKEVKEVATLSCGHNVSVEELAQTRIYWLKDKKMVLTMMSGDVNIWPEYKNRTIFDITNNLSIVILALRPSDEGAYECVVLKYEKDAFKREHLAEVTLSVKAD", "reported": 62100}
{"binder": "variant CD80 IgV-Fc Q33L/E35D/M47I/L85Q (Fc fusion, not shown: a dimerising Fc or GST) VIHVTKEVKEVATLSCGHNVSVEELAQTRIYWLKDKKMVLTMMSGDINIWPEYKNRTIFDITNNLSIVILALRPSDEGTYECVVQKYEKDAFKREHLAEVTLSVKAD", "reported": 63900}

a = variant CD80 IgV-Fc A26E/Q33R/E35D/M47L/L85Q (Fc fusion, not shown: a dimerising Fc or GST) VIHVTKEVKEVATLSCGHNVSVEELEQTRIYWRKDKKMVLTMMSGDLNIWPEYKNRTIFDITNNLSIVILALRPSDEGTYECVVQKYEKDAFKREHLAEVTLSVKAD
b = variant CD80 IgV-Fc Q33L/E35D/M47I (Fc fusion, not shown: a dimerising Fc or GST) VIHVTKEVKEVATLSCGHNVSVEELAQTRIYWLKDKKMVLTMMSGDINIWPEYKNRTIFDITNNLSIVILALRPSDEGTYECVVLKYEKDAFKREHLAEVTLSVKAD
Which has the higher MFI at 33.3 nM, a or b ? Which one? Tell me its label. a
(a: 81500 MFI, b: 37400 MFI)
